Reference source: ChEMBL document CHEMBL5058577

# Population Mitotic Cells (%) annotations
Test system: Fibroblast
Assay: Multiplex assay against human fibroblast
Assay type: toxicity, cell-based
Conditions: 24 h, 1 µM, compound concentration 1 uM, replicate 2
Non-standard residues stand in square brackets, D forms with d. Residues, ends and D or L forms follow the SMILES beside them.

Compound | Population Mitotic Cells (%)
Cc1cc(O)c(-c2ccc([C@@H](C)CN(C)C)cc2)c2c1[nH]c(=O)c1sccc12 | 47
CCC(=O)OCC(=O)[C@@]1(OC(=O)CC)[C@@H](C)C[C@H]2[C@@H]3CCC4=CC(=O)C=C[C@]4(C)[C@@]3(Cl)[C@@H](O)C[C@@]21C [BECLOMETHASONE DIPROPIONATE] | 52
COc1c(Nc2ccc(S(C)(=O)=O)nc2C)ncnc1OC1CCN(C(=O)OC(C)C)CC1 [ADP-597] | 62
CC(C)C[C@@H]1NC(=O)[C@@H](C(C)C)NC(=O)[C@@H]2CCCN2C(=O)[C@@H](CC(=O)O)NC(=O)[C@@H](Cc2c[nH]c3ccccc23)NC1=O [BQ-123] (cyclo(L[dW][dD]P[dV])) | 75
C=CCN1C[C@H](C(=O)N(CCCN(C)C)C(=O)NCC)C[C@@H]2c3cccc4[nH]cc(c34)C[C@H]21 [CABERGOLINE] | 55
CN1CCC(C(=O)c2cccc(NC(=O)c3c(F)cc(F)cc3F)n2)CC1 | 59
O=C(NCCNCC(O)COc1ccc(O)cc1)N1CCOCC1.O=C(NCCNCC(O)COc1ccc(O)cc1)N1CCOCC1.O=C(O)/C=C/C(=O)O (stereo unspecified) [XAMOTEROL FUMARATE] | 50
COc1cc2nc(N3CCN(C(=O)COc4c(OC)cccc4C(C)C)CC3)nc(N)c2cc1OC.Cl.Cl | 42
Cc1c(Cc2ccc3ccccc3n2)c2cc(F)ccc2n1CC(=O)O [TIMAPIPRANT] | 52
CCCCC[C@H](O)/C=C/[C@H]1[C@H](O)CC(=O)[C@@H]1CCCCCCC(=O)O [ALPROSTADIL] | 56
CC(C)C[C@H](CO)Nc1nc(S[C@@H](C)c2ccccc2)nc2nc(N)sc12 [AZD-8797] | 68
Nc1nc(-c2ccco2)c2cnn(Cc3ccccc3F)c2n1 | 43
COCCCN1CCC(NC(=O)c2cc(Cl)c(N)c3c2OCC3)CC1 [PRUCALOPRIDE] | 27
COc1cc(OC2CCN(C(C)=O)CC2)ccc1C(=O)N1CCC(N2C(=O)OCc3ccccc32)CC1 | 51
COc1cc(Nc2ncc3c(n2)-c2ccc(Cl)cc2C(c2c(F)cccc2OC)=NC3)ccc1C(=O)O [ALISERTIB] | 51
C[C@H](NC(=O)CNC(=O)c1cccc(Cl)c1)c1ccccc1 | 66
